Measured growth accompanies every entry in the list below.
# Tested on: Madurella mycetomatis MM55
# assay.name: growth relative to untreated control; higher = less inhibition, active = 20 or less
# setup.conditions: 100 µM
Please state the figure in %; there is no need to write the unit.

Find the recorded growth belonging to Fc1cccc(-c2ccc3c(c2)CC(NCc2c[nH]c4cnccc24)C3)c1 (centres undefined) and report it.
5.16

Find the recorded growth belonging to `FC(F)(F)c1cc(Cl)cc(Nc2nc3cnc(NC4CCOCC4)nc3n2C2CCNCC2)c1` and report it.
5.14

Find the recorded growth belonging to `CNC(=O)c1cc(Oc2ccc(NC(=O)Nc3ccc(Cl)c(C(F)(F)F)c3)c(F)c2)ccn1` and report it.
74.4

Find the recorded growth belonging to `CO[C@@H]1[C@H](N(C)C(=O)c2ccccc2)C[C@H]2O[C@]1(C)n1c3ccccc3c3c4c(c5c6ccccc6n2c5c31)C(=O)NC4` and report it.
87.3

Find the recorded growth belonging to `Oc1nc2ccccc2n1C1CCN(CCCC(c2ccc(F)cc2)c2ccc(F)cc2)CC1` and report it.
64.9

Find the recorded growth belonging to `N#C/C(C(=O)c1ccccc1Cl)=C1\NC(c2ccccc2)=CS1` and report it.
45.4

Find the recorded growth belonging to `O=C(NCCCNc1nc(Nc2ccc(N3CCOCC3)cc2)ncc1C1CC1)C1CCC1` and report it.
72.1

Find the recorded growth belonging to `CCCCc1oc2ccccc2c1C(=O)c1cc(I)c(OCCN(CC)CC)c(I)c1` and report it.
87.6

Find the recorded growth belonging to Cn1nc(-c2cccc(CNC3CCc4ccc(O)cc43)c2)c2cnc(NC3CCCC3)nc21 (centres undefined) and report it.
10.2

====

# Tested on: Madurella mycetomatis MM55
# assay.name: growth relative to untreated control; higher = less inhibition, active = 20 or less
# setup.conditions: 100 µM
Classes to choose from: t (active), f (inactive)

Before answering, review these 8 worked examples.
C/C=C/C[C@@H](C)[C@@H](O)[C@H]1C(=O)N[C@@H](CC)C(=O)N(C)CC(=O)N(C)[C@@H](CC(C)C)C(=O)N[C@@H](C(C)C)C(=O)N(C)[C@@H](CC(C)C)C(=O)N[C@@H](C)C(=O)N[C@H](C)C(=O)N(C)[C@H](CC(C)C)C(=O)N(C)[C@@H](CC(C)C)C(=O)N(C)[C@@H](C(C)C)C(=O)N1C    f
Cc1cnc2nc(NC3COc4ccc(F)cc43)nc(NC3CCC4(CCCC4)CC3)c2c1 (configuration not stated)    f
CCN(CC)CCNc1nc(Nc2cccc(OC)c2)c2cnn(-c3ccccc3)c2n1    t
O=C(OI(OC(=O)C(F)(F)F)c1ccccc1)C(F)(F)F    f
CS(=O)(=O)NC1CCN(C(=O)c2ccc(Nc3nccc(-c4cc(Cl)cc(C(F)(F)F)c4)n3)cc2)C1 (configuration not stated)    f
CCCCC(=O)N(Cc1ccc(-c2ccccc2-c2nn[nH]n2)cc1)[C@H](C(=O)O)C(C)C    f
COc1ccc2nc3cc(Cl)ccc3c(Nc3cc(CN4CCCC4)c(O)c(CN4CCCC4)c3)c2n1    f
C[C@]1(c2nc3c(C(N)=O)cccc3[nH]2)CCCN1    f

Which outcome did this test record for the molecule `CC(=O)Oc1ccccc1C(=O)Nc1ncc([N+](=O)[O-])s1` ?
f

Which outcome did this test record for the molecule `N=C(N)Nc1ccc(C(=O)Oc2ccc3cc(C(=N)N)ccc3c2)cc1` ?
f

Which outcome did this test record for the molecule `CC(C)Nc1ncc2nc(Nc3cc(F)cc(Cl)c3)n(C3CCNCC3)c2n1` ?
f

Which outcome did this test record for the molecule `CC(C)(C)[S@@](=O)N1Cc2cc(C(=O)NCCc3ccncc3)nc(-c3cccc(-c4ccccc4)c3)c2[C@H]1CCO` ?
f

Which outcome did this test record for the molecule `CN(C)C(=O)COC(=O)Cc1ccc(OC(=O)c2ccc(NC(=N)N)cc2)cc1` ?
f
